# target.entity: Mannose-6-phosphate isomerase (Homo sapiens) (UniProt P34949)
# Sequence (P34949 whole entry, looked up): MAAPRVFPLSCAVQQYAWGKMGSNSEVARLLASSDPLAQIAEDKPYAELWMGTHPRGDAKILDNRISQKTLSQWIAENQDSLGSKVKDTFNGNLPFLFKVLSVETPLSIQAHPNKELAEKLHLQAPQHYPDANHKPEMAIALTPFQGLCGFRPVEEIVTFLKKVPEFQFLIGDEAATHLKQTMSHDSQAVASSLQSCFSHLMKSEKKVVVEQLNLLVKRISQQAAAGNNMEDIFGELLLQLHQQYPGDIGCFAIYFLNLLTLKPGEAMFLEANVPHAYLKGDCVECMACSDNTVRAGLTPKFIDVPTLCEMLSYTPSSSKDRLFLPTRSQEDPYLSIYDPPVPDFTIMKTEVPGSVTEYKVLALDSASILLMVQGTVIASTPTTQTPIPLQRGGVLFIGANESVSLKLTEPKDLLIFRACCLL
# measurement.notes: MPI inhibition at elevated mannose 6-phosphate – biochemical, fluorescence intensity, high mannose 6-phosphate, primary screen (AID 1220)
# reported.conditions: recombinant PMI enzyme, coupled fluorescence intensity; at 20 µM
About 1,300 (0.68%) of roughly 190,000 compounds were called active. No stated cut-off is given here; in the data, active means inhibition above about 50%; inactive means the rest. Shown is part of a subset that was picked to be rich in actives.
Labels: true for active, false for inactive

compound	assigned.label
CN(C)N1C(N)=C(C#N)C(c2ccsc2)C2=C1CCCC2=O (centres undefined)	true
Cc1nc(NC(=O)CN(C)S(=O)(=O)c2ccc(Br)cc2)sc1C	false
CCCC(=Nc1ccc(N)cc1)C1=C(O)C(C(=O)OC)C(C)(C)CC1=O (centres undefined)	false
Cc1cc(S(=O)(=O)Nc2ccc(F)cc2)c(C)s1	false
CC(C)c1ccc(CNC(=O)C(=O)Nc2nccs2)cc1	false
C#CCNC(=O)C1CCN(c2ccc(S(=O)(=O)N3CCOCC3)cc2Cl)CC1	false
CCOc1cc(/C=C2\N=C(SC)SC2=O)cc([N+](=O)[O-])c1OC(C)=O	false
CN(C)S(=O)(=O)c1ccc(NC(=S)NC(=O)Cc2ccccc2)cc1	false
COc1ccc(NC(=O)NS(=O)(=O)c2ccc(C)cc2)c(OC)c1	true
CN(C)N1C(N)=C(C#N)C(c2cccnc2)C2=C1CC(C)(C)CC2=O (centres undefined)	false
Cc1nn(-c2ccccc2)c2c1C1(C(=O)N(C)c3ccccc31)C(C#N)=C(N)O2 (centres undefined)	false
COc1cccc2c(=O)cc(C)n(CC(=O)Nc3ccccc3C)c12	false
O=C(CCN1C(=O)/C(=C/C=C/c2ccccc2)SC1=S)Nc1cccnc1	false
O=C(Nc1ccc2c(c1)OCCO2)c1ccc(Br)s1	false
COC(=O)c1ccc(NC(=S)NC(=O)c2c(Cl)cnn2C)cc1	false
CN(C)c1cc[nH]c(=O)c1C#N	false
CCC1CCCCN1C(=O)c1sc2ncnc(N(CC)CC)c2c1C (centres undefined)	false
COC(=O)CN1C(=O)C2(C(C#N)=C(N)Oc3n[nH]c(-c4cccs4)c32)c2ccccc21 (centres undefined)	false
COCCNC(=O)c1c(N)n(-c2ccccc2)c2nc3ccccc3nc12	true
Cc1cc(N/N=C/c2ccccc2O)nc(-c2ccccc2O)n1	false
CC(C)NS(=O)(=O)c1ccc(NC(=S)NC(=O)c2cccc([N+](=O)[O-])c2)cc1	false
COc1ccccc1-n1c(N)c(C(=O)NCC2CCCO2)c2nc3ccccc3nc21 (centres undefined)	false
CC1Cc2nc(SCC(=O)N3CCCC3)n(C)c(=O)c2S1 (centres undefined)	false
C=CCn1c(N)c(C(=O)NCC2CCCO2)c2nc3ccccc3nc21 (centres undefined)	true
N#CC1=C(N)N(c2ccccc2)C2=C(C(=O)CCC2)C1c1ccsc1 (centres undefined)	false
CCC(C)NC(=O)CO/N=C/c1ccc(C(=O)OC)cc1 (centres undefined)	false
Cc1ccc(N2C(N)=C(C#N)C(c3cccnc3)C3=C2CCCC3=O)cc1 (centres undefined)	false
CC(=O)N1C(=O)C2(C(C#N)=C(N)Oc3cc(C)oc(=O)c32)c2ccccc21 (centres undefined)	false
N#CC1=C(N)OC2=C(C(=O)CCC2)C1c1ccsc1 (centres undefined)	false
CCN(CC)c1ccc(NC(=S)NC(=O)Cc2ccccc2)cc1	true
CC(=O)Nc1ccc(NS(=O)(=O)c2cc(C)sc2C)cc1	true
O=C(NCC1CCCO1)c1coc2nc3ccccc3nc12 (centres undefined)	false
COCCNC(=O)c1c(N)n(-c2cccc(C)c2)c2nc3ccccc3nc12	false
COC(=O)c1ccc(CSc2ccc3nnc(-c4cccnc4)n3n2)o1	false
CC1CN(C(NC(=O)c2ccccc2)C(Cl)(Cl)Cl)CC(C)O1 (centres undefined)	false
Nc1c(C(=O)NCC2CCCO2)c2nc3ccccc3nc2n1-c1ccccc1 (centres undefined)	true
CCCCOC(=O)c1ccc(NC(=S)NC(=O)c2c(Cl)cnn2CC)cc1	false
COc1ccc(CC2(CO)CCN(Cc3cccc(OC)c3OC)CC2)cc1	false
Cc1cc(N/N=C/c2ccc(O)c(C)c2O)nc(-c2ccccc2O)n1	false
COc1cc(NC(=O)NS(=O)(=O)c2ccc(C)cc2)cc(OC)c1	false
O=C(CSc1nc2ccccc2c(=O)n1-c1ccccc1)N1CCc2ccccc2C1	false
N#CC1=C(N)N(c2ccccc2)C2=C(C(=O)CCC2)C1c1ccccc1 (centres undefined)	true
Cc1cc(N/N=C/c2ccc(O)cc2O)nc(-c2ccccc2O)n1	true
C=CCSC1=N/C(=C\c2cc(OCC)c(OC(C)=O)c([N+](=O)[O-])c2)C(=O)S1	false
